- Assay method text: Half life in dog at 0.2 mg/kg, iv by LC-MS/MS analysis
- Assay type: ADME, organism-based, Canis lupus familiaris
- Cond: in vivo

{"columns": ["Compound", "half-life, h"],
 "data": [
  ["CC(C)(O)c1cc2nc([C@H]3CC[C@H](CN4CC5(CC(CCNc6cccc7c6C(=O)N(C6CCC(=O)NC6=O)C7=O)C5)C4)CC3)sc2cc1NC(=O)c1cccc(C(F)(F)F)n1 (stereo partly specified) [ZOMIRADOMIDE]", 28]
]}

* * *

Recorded half-life, one value per entry.
- Assay method text: Half life in rat plasma
- Assay type: ADME, cell-free
Attribute measured: half-life (h)

{"columns": ["Molecule", "Units of measure", "Recorded value"],
 "data": [
  ["CC(C)(O)c1cc2nc([C@H]3CC[C@H](CN4CC5(CC(CCNc6cccc7c6C(=O)N([C@@H]6CCC(=O)NC6=O)C7=O)C5)C4)CC3)sc2cc1NC(=O)c1cccc(C(F)(F)F)n1", "h", 2.38],
  ["CC(C)(O)c1cc2nc([C@H]3CC[C@H](CN4CC5(CC(CCNc6cccc7c6C(=O)N([C@H]6CCC(=O)NC6=O)C7=O)C5)C4)CC3)sc2cc1NC(=O)c1cccc(C(F)(F)F)n1", "h", 2.15]
]}
